System Tested: human GIP receptor (hGIPR) (Homo sapiens)
Construct: expressed in transfected cells
Sequence (P48546 22-466): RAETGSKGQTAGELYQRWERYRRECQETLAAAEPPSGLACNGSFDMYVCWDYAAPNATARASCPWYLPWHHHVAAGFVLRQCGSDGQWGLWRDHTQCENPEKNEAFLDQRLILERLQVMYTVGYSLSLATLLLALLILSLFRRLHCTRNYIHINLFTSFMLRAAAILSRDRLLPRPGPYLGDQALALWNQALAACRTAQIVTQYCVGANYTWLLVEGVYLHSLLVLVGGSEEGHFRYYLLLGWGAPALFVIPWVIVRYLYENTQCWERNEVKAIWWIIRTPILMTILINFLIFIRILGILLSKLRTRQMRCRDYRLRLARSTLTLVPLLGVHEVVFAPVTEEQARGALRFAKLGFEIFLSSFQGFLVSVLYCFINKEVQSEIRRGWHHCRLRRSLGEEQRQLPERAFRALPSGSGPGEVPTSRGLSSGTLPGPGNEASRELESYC
Experiment Description: GIP receptor assay, method A (CRE-luciferase reporter, BHK cells)
Format: cell-based
Settings: method A, absence of HSA; read-out: hGIPR Potency, no HSA, EC50
Numbered stars: 1 amine (or outer) side, 2 acyl side, 3 side chain; on linkers, the order of the positions; unused ones are H or OH. Square brackets hold non-standard residues; d marks the D form. Side chains are listed from the residue outwards. * marks the point of attachment. C18 diacid = O=C(O)CCCCCCCCCCCCCCCCC(=O)*; γGlu = O=C(O)[C@H](CCC(=O)[*:2])N[*:1]; AEEA = NCCOCCOCC(=O)O; Aib = CC(C)(N)C(=O)O
Threshold check on EC50: strictly below 2 pM is t; on or above 2 pM is f.

H[Aib]HGTFTSDYSILLEEQAAREFIEWLLAGGPSRGAPPPSGGGEASELSTAALGRLSAELHK([AEEA-AEEA-γGlu-C18 diacid])LATLPRTETGSGSP-NH2 [Compound 70] ... f

Request: Below 2 pM on EC50? Entry H[Aib]HGTFTSDYSILLEEQAAREFIEWLLAGGPSSGEASHLSTAQTQRLSAELHRLK([AEEA-AEEA-γGlu-C18 diacid])TLPRTETGSGSP-NH2 [Compound 83]
Response: f

Request: # TODO verify EC50 < 2 pM strictly for this substance: H[Aib]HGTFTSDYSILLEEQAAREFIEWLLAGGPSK([AEEA-AEEA-γGlu-C18 diacid])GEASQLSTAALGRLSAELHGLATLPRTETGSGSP-NH2 [Compound 65]
Response: t

Request: Find out if reported EC50 for Y[Aib]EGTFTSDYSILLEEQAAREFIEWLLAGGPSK([AEEA-AEEA-γGlu-C18 diacid])GAEASELSTAALGRLSAELHELATLPRTETGSGSP-NH2 [Compound 32] is less than 2 pM
Response: f
